- assayedSystem: T1, human IL-1α (human, UniProt P01583 113-271)
- T1 construct: also called IL-1alpha; hIL-1α
- T1 sequence (looked up): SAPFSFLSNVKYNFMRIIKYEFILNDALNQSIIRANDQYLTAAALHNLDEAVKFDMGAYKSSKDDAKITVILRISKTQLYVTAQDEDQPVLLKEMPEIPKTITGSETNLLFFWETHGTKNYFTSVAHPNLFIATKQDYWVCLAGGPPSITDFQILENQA
- assayExplanation: Table 62 IC50; RBA presumed
Assignment: determine reported IC50 for the given binders.
Give a bare numeral; the unit nM is implied.

Item under review: ABT1-95-98 (other, VK dAb) VL: DIQMTQSPSSLSASVGDRVTITCRASQPIVRNLRWYQQKPGKAPKLLIYSSSALEPGVPSRFSGSGSGTDFTLTISSLQPEDFATYHCQQGYRWPVTFGQGTKVEIKR . Reported IC50?
0.8

Further, for ABT1-95-25 (other, VK dAb) VL: DIQMTQSPSSLSASVGDRVTITCRASQPIVRNLRWYQQKPGKAPKLLIYSSSYLEPGVPSRFSGSGSGTDFTLTISSLQPEDFATYYCDQGYRWPVTFGQGTKVEIKR ?
0.5

Further, for ABT1-95-149 (other, VK dAb) VL: DIQMTQSPSSLSASVGDRVTITCRASQAIVRNLRWYQQKPGKAPKLLIYSSSYLEPGVPSRFSGSGSGTDFTLTISSLQPEDFATYHCQQGYRWPVTFGQGTKVEIKR ?
0.2

Further, for ABT1-132 (other, VK dAb) VL: DIQMTQSPSSLSASVGDRVTITCRASQNIATALLWYQQKPGKAPRLLIYDSSQLQSGVPSRFSGSGSGTDFTLTISSLQPEDFATYYCQQMYWVPFTFGQGTKVEIKR ?
300

The reported measurements were obtained from patent US20090291081A1.
